System: HCT-8
Assay info: Cytotoxicity against human HCT8 cells
Type: cell-based
pEC50: −log10 of the molar value.

- Molecule: "COC(=O)[C@H]1O[C@@H]2C[C@H]3O[C@@H](n4cnc5c(N)ncnc54)[C@H](OC)[C@H]3O[C@@]2(O)[C@@H](O)[C@@H]1O"
  Assayed system: "HCT-8"
  pEC50: "< 4.60"
- Molecule: "COC(=O)[C@H]1O[C@@H]2C[C@H]3O[C@@H](n4cnc5c(N)ncnc54)[C@H](OC)[C@H]3O[C@@]2(O)[C@H](O)[C@@H]1O"
  Assayed system: "HCT-8"
  pEC50: "< 4.60"
- Molecule: "C/C=C(\\CO)C(=O)O[C@H]1[C@H](O)[C@@H](C(=O)OC)O[C@@H]2C[C@H]3O[C@@H](n4cnc5c(N)ncnc54)[C@H](OC)[C@H]3O[C@]21O"
  Assayed system: "HCT-8"
  pEC50: "< 4.60"
- Molecule: "COC(=O)[C@H]1O[C@@H]2C[C@H]3O[C@@H](n4cnc5c(N)ncnc54)[C@H](O)[C@H]3O[C@@]2(O)[C@@H](O)[C@@H]1O"
  Assayed system: "HCT-8"
  pEC50: "< 4.60"
- Molecule: "C/C=C(\\CO)C(=O)O[C@@H]1[C@@H](C(=O)OC)O[C@@H]2C[C@H]3O[C@@H](n4cnc5c(N)ncnc54)[C@H](OC)[C@H]3O[C@@]2(O)[C@@H]1O"
  Assayed system: "HCT-8"
  pEC50: "6.74 to 6.85"
- Molecule: "O=c1[nH]c(=O)n([C@H]2C[C@H](O)[C@@H](CO)O2)cc1F"
  Assayed system: "HCT-8"
  pEC50: "7.42 to 7.82"
- Molecule: "CC(=O)Oc1ccccc1C(=O)Nc1ncc([N+](=O)[O-])s1 [NITAZOXANIDE]"
  Assayed system: "HCT-8"
  pEC50: "< 4.60"
- Molecule: "C/C=C(\\C)C(=O)O[C@H]1[C@H](O)[C@@H](C(=O)OC)O[C@@H]2C[C@H]3O[C@@H](n4cnc5c(N)ncnc54)[C@H](O)[C@H]3O[C@]21O"
  Assayed system: "HCT-8"
  pEC50: "< 4.60"
- Molecule: "COc1ccc(C[C@H](N)C(=O)N[C@H]2[C@@H](O)[C@H](n3cnc4c(N(C)C)ncnc43)O[C@@H]2CO)cc1"
  Assayed system: "HCT-8"
  pEC50: "5.15 to 5.21"

* * *

// reported pEC50 for each item listed
System: Cryptosporidium parvum
Assay info: Antiparasitic activity against Cryptosporidium parvum BGF infected in human HCT8 cells incubated for 48 hrs by FITC/DAPI staining based fluorescence assay
Format: functional, organism-based
Setup conditions: HCT-8, 48 h
pEC50: −log10 of the molar value.

- Compound structure string: "C/C=C(\\CO)C(=O)O[C@H]1[C@H](O)[C@@H](C(=O)OC)O[C@@H]2C[C@H]3O[C@@H](n4cnc5c(N)ncnc54)[C@H](OC)[C@H]3O[C@]21O"
  Op: "="
  pEC50: 4.68
- Compound structure string: "COC(=O)[C@H]1O[C@@H]2C[C@H]3O[C@@H](n4cnc5c(N)ncnc54)[C@H](OC)[C@H]3O[C@@]2(O)[C@H](O)[C@@H]1O"
  Op: "<"
  pEC50: 4.60
- Compound structure string: "O=c1[nH]c(=O)n([C@H]2C[C@H](O)[C@@H](CO)O2)cc1F"
  Op: "="
  pEC50: 8.02
- Compound structure string: "COC(=O)[C@H]1O[C@@H]2C[C@H]3O[C@@H](n4cnc5c(N)ncnc54)[C@H](O)[C@H]3O[C@@]2(O)[C@@H](O)[C@@H]1O"
  Op: "="
  pEC50: 4.74
- Compound structure string: "C/C=C(\\C)C(=O)O[C@H]1[C@H](O)[C@@H](C(=O)OC)O[C@@H]2C[C@H]3O[C@@H](n4cnc5c(N)ncnc54)[C@H](O)[C@H]3O[C@]21O"
  Op: "="
  pEC50: 5.55
- Compound structure string: "C/C=C(\\CO)C(=O)O[C@@H]1[C@@H](C(=O)OC)O[C@@H]2C[C@H]3O[C@@H](n4cnc5c(N)ncnc54)[C@H](OC)[C@H]3O[C@@]2(O)[C@@H]1O"
  Op: "="
  pEC50: 6.82

Where do these numbers come from? They come from ChEMBL document CHEMBL4251668.
